The measurements presented in this section are drawn from patent US7928137B2.

# Target Desc: UniProt:P00742
# Sequence (P00742 235-488 limits assumed): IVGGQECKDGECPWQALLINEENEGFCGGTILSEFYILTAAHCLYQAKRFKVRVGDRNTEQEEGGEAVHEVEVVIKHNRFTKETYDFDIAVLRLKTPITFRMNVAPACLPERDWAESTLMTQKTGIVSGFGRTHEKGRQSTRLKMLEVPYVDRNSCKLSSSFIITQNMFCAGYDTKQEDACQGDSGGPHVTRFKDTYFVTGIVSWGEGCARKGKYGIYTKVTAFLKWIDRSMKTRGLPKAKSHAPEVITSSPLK
# Sequence (P00742 41-179 partner limits assumed): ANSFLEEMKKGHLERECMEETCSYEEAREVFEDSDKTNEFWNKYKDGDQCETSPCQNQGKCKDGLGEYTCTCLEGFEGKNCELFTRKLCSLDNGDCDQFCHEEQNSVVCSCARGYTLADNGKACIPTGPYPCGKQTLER
pKi: −log10 of the molar value.

{"Compound": "CC(=N)N1CCC(CCOC(=O)[C@H](NC(=O)c2cccc(C(=N)N)c2)c2ccccc2)CC1 [Example 84]", "pKi": 7.98}
{"Compound": "Cc1ccc(CNC(=O)[C@H](NC(=O)c2cccc(C(=N)N)c2)c2ccccc2)cc1 [Example 64]", "pKi": 7.06}
{"Compound": "N=C(N)c1cccc(C(=O)N[C@@H](C(=O)NC2C3CC4CC(C3)CC2C4)c2ccccc2)c1 (some centres unmarked) [Example 68]", "pKi": 7.01}
{"Compound": "N=C(N)c1cccc(C(=O)N[C@@H](C(=O)NCc2cccc3ccccc23)c2ccccc2)c1 [Example 65]", "pKi": 7.19}
{"Compound": "N=C(N)c1cccc(C(=O)N[C@@H](C(=O)OCCC2CCN(C(=N)N)CC2)c2ccccc2)c1 [Example 87]", "pKi": 7.62}
